B1: library; numbered along this chain (parent)
chain: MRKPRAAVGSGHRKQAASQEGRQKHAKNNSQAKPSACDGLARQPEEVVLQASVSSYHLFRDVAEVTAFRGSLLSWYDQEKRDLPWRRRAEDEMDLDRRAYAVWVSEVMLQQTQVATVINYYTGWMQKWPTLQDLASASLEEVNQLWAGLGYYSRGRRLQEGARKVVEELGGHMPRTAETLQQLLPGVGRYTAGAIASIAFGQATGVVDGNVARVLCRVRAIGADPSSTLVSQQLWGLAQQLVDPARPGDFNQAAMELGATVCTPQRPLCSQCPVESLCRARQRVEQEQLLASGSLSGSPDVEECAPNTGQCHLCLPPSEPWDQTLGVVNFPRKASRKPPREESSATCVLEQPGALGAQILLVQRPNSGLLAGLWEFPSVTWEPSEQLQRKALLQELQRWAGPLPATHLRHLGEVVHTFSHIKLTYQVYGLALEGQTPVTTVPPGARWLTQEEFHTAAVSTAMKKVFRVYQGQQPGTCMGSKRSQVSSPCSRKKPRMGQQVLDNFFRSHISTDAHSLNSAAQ

- Variants of: B1
- protocol-notes: 8OG:A repair function score (normalized; synonymous = 0, nonsense = -1) (normalized log-likelihood score); higher = more repair activity (WT-like);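 note: cells sorted at 72 h after reporter transfection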
- conditions: with 8OG:A DNA repair reporter (GFP) in HEK-293 MUTYH KO cells
# 8OG:A repair function score per entry
Returns: the value as a bare number; no unit string appended.

Q78Y	-0.12
P338M	0.0756
P225I	0.0375
L423F	-0.0863
D61Q	-0.0778

Input line: Sample V468S — what was its 8OG:A repair function score?
Output line: -0.18

Input line: Which 8OG:A repair function score is reported for this variant? N210I
Output line: -1

Input line: What value of 8OG:A repair function score has been reported for the following variant? D300N
Output line: -0.0764

Input line: Any idea what its 8OG:A repair function score is? The variant is P84K
Output line: -0.876

Input line: Bench note: what 8OG:A repair function score did P247A show?
Output line: -0.379

Input line: Requested field: 8OG:A repair function score. Item: T179F
Output line: -0.0885

Input line: # input variant: R88K ; wanted: its 8OG:A repair function score
Output line: -0.364

Input line: Please report the recorded 8OG:A repair function score for L360Q .
Output line: -0.916

Input line: Could you share which 8OG:A repair function score value was measured for G356Q ?
Output line: 0.00571

Input line: Any idea what 8OG:A repair function score was measured for Q310K ?
Output line: -0.0227

Input line: Field request: 8OG:A repair function score | item: R446Y
Output line: -0.414

Input line: Request the reported 8OG:A repair function score associated with T204M
Output line: -0.111

Input line: Tell me the measured 8OG:A repair function score of T112N , please.
Output line: -0.879

Input line: Dear colleague, I am looking for the recorded 8OG:A repair function score of the following variant: P377I
Output line: -0.348

Input line: Quick check: 8OG:A repair function score of E285V ?
Output line: 0.00347

Input line: Requested field: 8OG:A repair function score. Item: C477K
Output line: 0.00687

Input line: # get_value(readout='8OG:A repair function score', item= A196F )
Output line: -0.939

Input line: What value of measured 8OG:A repair function score is listed for G497H ?
Output line: -0.0394

Input line: Which 8OG:A repair function score is reported for this variant? T116Y
Output line: -0.0318
